Target: T1, Mouse Id3: Histidine (mouse, UniProt P41133 1-119)
T1 construct: Fusion protein made in E. coli from vector pGW07; also called m-Id3: His; Mouse Id3 (coated wells); not shown: His tag
T1 sequence: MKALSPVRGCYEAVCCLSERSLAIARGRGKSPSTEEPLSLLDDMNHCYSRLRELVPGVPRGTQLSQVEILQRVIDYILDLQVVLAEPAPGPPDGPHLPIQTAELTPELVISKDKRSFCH
Test: ELISA, Ab 0.000 µg/ml (blank)
parameter: A450
Express the reported value numerically, then name its unit.

Sure, the documented A450 for rabbit monoclonal anti-mouse/human Id3, clone #BCH-4/#17-3 (antibody, V domains shown, Rabbit IgG from a rabbit hybridoma; also called m/h Id3 MoAb 17-3; BCH-3/#17-3) VH: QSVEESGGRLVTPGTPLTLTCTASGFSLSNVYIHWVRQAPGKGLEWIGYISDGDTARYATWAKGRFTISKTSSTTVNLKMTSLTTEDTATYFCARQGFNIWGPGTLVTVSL VL: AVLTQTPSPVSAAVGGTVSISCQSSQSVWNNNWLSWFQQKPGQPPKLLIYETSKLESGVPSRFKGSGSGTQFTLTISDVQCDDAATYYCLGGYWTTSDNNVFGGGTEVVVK is 0.047 A450
